Provenance of the data: ChEMBL document CHEMBL2375216

- Tested on: Rattus norvegicus
- measurementDescription: Antiinflammatory activity in ip dosed Sprague-Dawley rat assessed as inhibition of carrageenan-induced paw edema measured after 2 hrs plethysmometric analysis
- Format: functional
propertyName: ED50 (mg/kg)
Give the number; mg/kg is assumed, so skip it.

The following molecules have reported results that may help.
The molecule listed as `NS(=O)(=O)c1ccc(N2C(=O)c3ccc([N+](=O)[O-])cc3C2=O)cc1` shows ED50 equal to 101

Lab note: `NS(=O)(=O)c1ccc(N2C(=O)c3cccc4cccc(c34)C2=O)cc1` gave ED50 of 210

Lab book: ED50 of `NS(=O)(=O)c1ccc(CN2C(=O)c3cccc4cccc(c34)C2=O)cc1` noted as 200

Now, please, on to the next molecule.
For this molecule ( `NS(=O)(=O)c1ccc(CN2C(=O)c3ccc([N+](=O)[O-])cc3C2=O)cc1` ), measured ED50 is 72.4
